Experiment notes: basal S. cerevisiae growth modulation, no modifier, primary screen, OD600, strain BY4716, 24 h, basal condition (AID 1173)
Measurement conditions: OD600, 24 h, higher = more signal, called active from +8 up or from −8 down
Calls of active or inactive are those of the source.
Experimental endpoint: z-score

COC(=O)[C@@]1(Cc2ccc(F)cc2)[C@H]2c3cc(C(=O)N(C)C)n(CCN4CCOCC4)c3C[C@H]2CN1C(=O)c1ccccc1    1.22 (inactive)
COc1ccc([Si](C)(C)[C@H]2[C@H](CCn3cc([C@H](O)c4ccccc4)nn3)O[C@@]3(C(=O)N(c4ccccc4)c4ccccc43)[C@@H]2C)cc1    0.885 (inactive)
Cc1ccc(S(=O)(=O)N2[C@@H](c3ccccc3)C(C(=O)O)=CC[C@H]2c2ccc(C#N)cc2)cc1    -0.647 (inactive)

(Q) Name the reported z-score value associated with the compound C[C@@H](OCc1ccccc1)C1NC(=O)[C@@]23C(=O)N[C@@H](Cc4ccccc4)C2[C@H](C)[C@@]2(C)O[C@H]2C3/C=C/C/C=C\CNC(=O)[C@H](Cc2ccccc2)NC1=O (some centres undefined)
(A) -1.29 (inactive)

====

Assayed target: Dihydroorotate dehydrogenase (quinone), mitochondrial (Plasmodium falciparum (isolate 3D7)) (UniProt Q08210)
Sequence (Q08210 whole entry, looked up): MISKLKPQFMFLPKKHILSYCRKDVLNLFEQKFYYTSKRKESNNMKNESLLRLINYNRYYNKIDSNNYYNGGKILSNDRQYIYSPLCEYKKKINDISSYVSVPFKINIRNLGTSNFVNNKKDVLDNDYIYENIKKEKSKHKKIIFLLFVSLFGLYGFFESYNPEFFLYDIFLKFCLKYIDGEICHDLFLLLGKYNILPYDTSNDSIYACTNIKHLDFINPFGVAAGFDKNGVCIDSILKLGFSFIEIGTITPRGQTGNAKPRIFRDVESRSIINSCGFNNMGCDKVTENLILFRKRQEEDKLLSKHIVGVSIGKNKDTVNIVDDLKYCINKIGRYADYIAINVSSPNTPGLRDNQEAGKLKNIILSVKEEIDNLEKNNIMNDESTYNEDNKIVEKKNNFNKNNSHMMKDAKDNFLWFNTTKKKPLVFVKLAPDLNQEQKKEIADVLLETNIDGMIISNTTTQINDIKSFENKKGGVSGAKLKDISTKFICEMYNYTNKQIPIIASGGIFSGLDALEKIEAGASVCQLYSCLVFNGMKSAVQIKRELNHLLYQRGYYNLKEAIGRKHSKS
Experiment notes: PfDHODH enzyme inhibitors, primary screen, biochemical, C-terminal His tag, absorbance 600 nm (AID 1175);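 further: recombinant parasite enzyme with a five histidine tag at its C terminus; test concentration not given here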
Measurement conditions: DCIP absorbance 600 nm, higher = more signal, called active from +8 up or from −8 down
Classification field. Basis: composite z-score. Definitions: low value = under -1, medium value = from -1 up to -0.04, high value = -0.04 and over

Past entries and their recorded results:
COc1ccc(CCNC(=O)[C@@]2(C)c3ccccc3C(=O)N(Cc3cc(C(F)(F)F)cc(C(F)(F)F)c3)[C@H]2c2ccc(CO)cc2)cc1    medium value
C=CCC(OC(C)=O)[C@@H]1[C@@H](N(Cc2cccc3ccccc23)C(=O)c2ccc(C)cc2)c2cc(OCCCO)ccc2N1C(=O)c1ccc2ccccc2n1 (stereo partly specified)    low value
C=CCOC(=O)[C@@H]1[C@H]2C(=O)O[C@H](c3ccccc3)[C@H](c3ccccc3)N2[C@H](c2ccc(OCCOC(=O)[C@H]3C[C@H]4C(=O)NCC(=O)N4[C@H]3c3ccc(O)cc3)cc2)[C@@]12C(=O)Nc1ccc(I)cc12    low value
CN(C)CCCC[C@@H]1NC(=O)[C@@H]2C[C@H](C(=O)NCc3ccc(F)cc3)[C@H](c3ccc(O)cc3)N2C1=O    low value
CC=CC(O)C1C=CC2C(=O)N(C)C(=O)C2N1NC(=O)OC(C)(C)C (stereo unspecified)    medium value

(Q) Form field 'band' for `CCc1cccc(NC(=O)O[C@H]2[C@H](OC(=O)Nc3ccc4c(c3)OCO4)[C@H](OC(=O)Nc3ccc4c(c3)OCO4)[C@@H](OC)O[C@@H]2CO)c1`
(A) low value

(Q) Form field 'band' for O=C1OCCC=C[C@H]2OC34C=CCN(CCN5CCOCC5)C(=O)[C@H]3N(CCCO)C(=O)[C@@H]4C12 (stereo partly specified)
(A) high value

(Q) Form field 'band' for CC1CC/C=C\[C@H]2OC34C=CCN(CCN5CCOCC5)C(=O)[C@H]3N(CCCCCCO)C(=O)[C@@H]4C2C(=O)O1 (stereo partly specified)
(A) high value

(Q) Form field 'band' for `C=CC[C@]1(C(=O)NCCCOC)N=C(c2ccc(OCCCO)cc2)O[C@H]1c1ccccc1`
(A) medium value

(Q) Form field 'band' for CCN(CC)c1ccc(N2CC=CC34O[C@@H]5C=CCOC(=O)[C@@H]5[C@H]3C(=O)N(CCCO)[C@@H]4C2=O)cc1 (stereo partly specified)
(A) low value

(Q) Form field 'band' for `C#CCN=C(N)N`
(A) medium value

(Q) Form field 'band' for `CCOC(=O)C[C@H]1[C@H](OC(=O)Cc2ccc3c(c2)OCO3)[C@@H](NC(=O)c2ccccc2)c2cc(OCCCO)ccc2N1C(=O)Cc1ccc(OC)cc1`
(A) low value

(Q) Form field 'band' for `C=CC[C@@]12N=C(c3ccc(OCCCO)cc3)O[C@@H]1c1ccccc1N(Cc1ccccc1)C2=O`
(A) medium value

(Q) Form field 'band' for CC(=O)c1ccc(C(O)C2C=CC3C(=O)N(C)C(=O)C3N2NC(=O)OC(C)(C)C)cc1 (stereo unspecified)
(A) high value

====

Tested on: glycogen synthase kinase-3 (GSK3A per assay name; protocol says GSK3B)
Experiment notes: GSK3 binders on small-molecule microarrays, primary screen, biochemical, small-molecule microarray, 635 nm fluorescence, GSK3A (AID 1103); further: the record names both GSK3A and GSK3B
Measurement conditions: small-molecule microarray binding, fluorescence 635 nm; higher = more signal
Measured composite z-score accompanies every entry in the list below.
# respond with the number and nothing more

CCCCC(O)C1C=CC2C(=O)N(C)C(=O)C2N1Nc1ccccc1 (stereo not drawn)    -0.0703
CC(C)N1CC=CC23O[C@@H]4C=CCCOC(=O)C4[C@H]2C(=O)N(CCCCCO)[C@@H]3C1=O (stereo partly drawn)    -1.26
Cc1ccc(S[C@]2(C(=O)NCCN3CCOCC3)CC(=O)N(C3CCCCC3)[C@@H]2c2ccc(CO)cc2I)cc1    1.19
COc1ccc([Si](C)(C)[C@H]2[C@H](CC(=O)N3Cc4ccccc4C[C@H]3CO)O[C@@]3(C(=O)N(Cc4cccc(N5C(=O)c6cccc7cccc5c67)c4)c4ccccc43)[C@@H]2C)cc1    0.627

(Q) Name the reported composite z-score value associated with the compound `COC(=O)c1ccc([C@H](NC(=O)c2ccccc2)[C@]2(C)C[C@H]2C2CCCCC2)cc1`
(A) 0.0377

(Q) Name the reported composite z-score value associated with the compound `CC(C)[C@@H](C(=O)O)n1cc(-c2ccccc2)nn1`
(A) 1.27

(Q) Name the reported composite z-score value associated with the compound `CCOC(=O)C1=CC[C@@H](c2ccccc2)N(S(=O)(=O)c2ccc(C)cc2)[C@H]1C#N`
(A) 0.73

(Q) Name the reported composite z-score value associated with the compound `C=CC[C@]1(C(=O)OC)N=C(c2ccc(OCCCO)cc2)O[C@H]1c1ccccc1N=[N+]=[N-]`
(A) 1.31

====

Assayed target: Torsin-1A (Homo sapiens)
Experiment notes: small-molecule binders of mutant TOR1A in lysate, primary screen, cell lysate, small-molecule microarray, COS7 lysate, 635/667 nm fluorescence (AID 1150);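 further: score pools 667 nm emission and signal to noise measuring lysate protein binding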
Measurement conditions: COS7 hTOR1A mutant lysate, 635 nm fluorescence, higher = more signal
Experimental endpoint: composite z-score
# respond with the number and nothing more

Example entries and their recorded answers appear below.
C=CCC(OC(C)=O)[C@@H]1[C@@H](N(Cc2cc3ccccc3o2)C(=O)c2cccc3ccccc23)c2cc(OCCCO)ccc2N1C(=O)c1ccc2ccccc2c1 (some centres not stated)    0.132
COc1ccccc1CN1C(=O)c2ccccc2[C@@H](C(=O)NCCCN(C)C)[C@@H]1c1ccc(CO)cc1    -0.0195
CCc1cccc(NC(=O)O[C@H]2[C@H](OC(=O)Nc3ccc4c(c3)OCO4)[C@H](OC(=O)Nc3ccc4c(c3)OCO4)[C@@H](OC)O[C@@H]2CO)c1    0.97
CCOC(=O)C1=C(C(=O)OCC)N(S(=O)(=O)CC[Si](C)(C)C)[C@H](c2ccccc2)CC1    0.476
COCCOC(=O)N1C(=O)[C@@]2(c3cc(C#CCC(C(=O)OC)C(=O)OC)ccc31)[C@H](C(=O)N1CCc3cc(OC)c(OC)cc3C1)[C@H]1C(=O)O[C@H](c3ccccc3)[C@H](c3ccccc3)N1[C@@H]2c1ccc(O)cc1    0.864

(Q) API: value(readout=composite z-score, system=Torsin-1A (Homo sapiens)) for record C=CCC(OC(C)=O)[C@@H]1[C@@H](N(Cc2ccc(-c3ccccc3)cc2)C(=O)c2ccc(C)cc2)c2cc(OCCCO)ccc2N1C(=O)c1ccc2ccccc2c1 (some centres not stated)
(A) -0.0531

(Q) API: value(readout=composite z-score, system=Torsin-1A (Homo sapiens)) for record CCN(CC)c1ccc(N2CC=CC34O[C@@H]5C=CCOC(=O)[C@@H]5[C@H]3C(=O)N(CCCO)[C@@H]4C2=O)cc1 (some centres not stated)
(A) 2.46

(Q) API: value(readout=composite z-score, system=Torsin-1A (Homo sapiens)) for record `COCCOC(=O)N1C(=O)[C@@]2(c3cc(C#Cc4ccc(OC)cc4)ccc31)[C@H](C(=O)N1CCCCCCC1)[C@H]1C(=O)O[C@H](c3ccccc3)[C@H](c3ccccc3)N1[C@@H]2c1ccccc1OCCO`
(A) 1.18

(Q) API: value(readout=composite z-score, system=Torsin-1A (Homo sapiens)) for record `COCCCNC(=O)[C@@]1(Sc2ccc(C)cc2)CC(=O)N(C2CCCCC2)[C@@H]1c1ccc(CO)cc1I`
(A) 0.401

====

Tested on: Human papillomavirus type 1a protein E7 (residues 44-93)
Experiment notes: HPV1a E7 fragment binders on microarrays, primary screen, biochemical, small-molecule microarray, residues 44-93, 635 nm fluorescence (AID 1108);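 further: E7 fragment applied at 1 µg/mL in TBST for 1 h at 4 C; score combines spot fluorescence with its signal to noise ratio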
Measurement conditions: small-molecule microarray binding, fluorescence 635 nm; higher = more signal
Use 0.2 as the dividing line for composite z-score, with the line itself on the Satisfied side and lower values as Not satisfied.

Past entries and their recorded results:
C=CCNC(=O)[C@H]1[C@@H]2C(=O)O[C@@H](c3ccccc3)[C@@H](c3ccccc3)N2[C@@H](c2ccccc2OCCO)[C@]12C(=O)N(C(=O)OCCOC)c1ccccc12    Satisfied
O=C1OCCC=C[C@H]2OC34C=CCN(CCN5CCOCC5)C(=O)[C@H]3N(CCCO)C(=O)[C@@H]4C12 (stereo partly specified)    Not satisfied
CCCC[C@H]1OB(O)C[C@H]2C1=C(C)C[C@H]1C(=O)C=CC(=O)[C@H]12    Satisfied
CCc1cccc(NC(=O)O[C@H]2[C@H](OC(=O)Nc3ccc4c(c3)OCO4)[C@H](OC(=O)Nc3ccc4c(c3)OCO4)[C@@H](OC)O[C@@H]2CO)c1    Satisfied

(Q) Exam item: decide whether the reported composite z-score for `COCC(=C=CC[C@@H](O)c1cccc(OCCO)c1)C[C@@H](O)COCc1ccccc1` is at least 0.2.
(A) Satisfied

(Q) Exam item: decide whether the reported composite z-score for `CC(C)C(=C=CC[C@@H](O)c1ccc(OCCO)cc1)CCO` is at least 0.2.
(A) Not satisfied

(Q) Exam item: decide whether the reported composite z-score for CN1C(=O)C2C(C1=O)C1C=C(c3ccc(CO)cc3)C2C(c2cccs2)N1C (stereo unspecified) is at least 0.2.
(A) Not satisfied

(Q) Exam item: decide whether the reported composite z-score for C=CCC(OC(C)=O)[C@@H]1[C@@H](N(Cc2ccc(-c3ccccc3)cc2)C(=O)c2ccc(C)cc2)c2cc(OCCCO)ccc2N1C(=O)c1ccc2ccccc2c1 (stereo partly specified) is at least 0.2.
(A) Not satisfied

(Q) Exam item: decide whether the reported composite z-score for CC(=O)c1ccc(C(O)C2C=CC3C(=O)NC(=O)C3N2Nc2ccc(Cl)cc2Cl)cc1 (stereo unspecified) is at least 0.2.
(A) Not satisfied
